- experimental_system: tryptophan repressor (TrpR) (UniProt P0A881 P0A881:2-108)
- method_notes: FP; dimer-DNA Kd from linked monomer-dimer/DNA binding model (preferred fit; dimer-monomer Kd 3.5 nM); 0.2 nM DNA, 10 mM K phosphate, 0.1 mM EDTA, 10% glycerol, pH
quantity_measured: Kd (nM)
Respond numerically; units are nM and should not be typed.

Name the recorded Kd for fluorescein-labeled 25-mer trp operator duplex (dsDNA) DNA 1: CTTGCACTAGTTAACTAGTCAGCAA DNA 2: TTGCTGACTAGTTAACTAGTGCAAG . 0.23

Taken from patent US5445935.
